- TEST SYSTEM: HLA-A*29:02
- PROTOCOL NOTES: IEDB peptide-MHC binding, purified MHC/competitive/fluorescence; filed as Kd, often an IC50 or EC50 that approximates it; bounds were set here for any values at or beyond the usual limits of such assays
- SETTINGS: source organism: Staphylococcus aureus subsp. aureus N315
QUANTITY MEASURED: pKd
pKd field: float, defined as -log10 of concentration (mol/L).

The sequence identified as MVIKWIHER registered its pKd at 6.26

---

- TEST SYSTEM: HLA-A*32:15
- PROTOCOL NOTES: IEDB peptide-MHC binding, purified MHC/competitive/fluorescence; filed as Kd, often an IC50 or EC50 that approximates it; bounds were set here for any values at or beyond the usual limits of such assays
- SETTINGS: source organism: human gammaherpesvirus 4
QUANTITY MEASURED: Kd (nM)
Dear colleague, please return just the value in nM, with no unit written.

The sequence identified as EVFFGLSRY registered its Kd at 26.9

---

- TEST SYSTEM: HLA-B*39:01
- PROTOCOL NOTES: IEDB peptide-MHC binding, purified MHC/direct/fluorescence; filed as Kd, often an IC50 or EC50 that approximates it; bounds were set here for any values at or beyond the usual limits of such assays
- SETTINGS: source organism: Rickettsia bellii RML369-C
pKd: −log10 of the molar value.
QUANTITY MEASURED: pKd

The sequence identified as NPLEIYQEI registered its pKd at ≤ 4.70

---

- TEST SYSTEM: HLA-A*02:03
- PROTOCOL NOTES: IEDB peptide-MHC binding, purified MHC/competitive/radioactivity; filed as Kd, often an IC50 or EC50 that approximates it; bounds were set here for any values at or beyond the usual limits of such assays
- SETTINGS: source organism: Dengue virus 3 Martinique/1243/1999
QUANTITY MEASURED: pKd
pKd field: float, defined as -log10 of concentration (mol/L).

The sequence identified as LLMLVTPSMT registered its pKd at 6.77

---

- TEST SYSTEM: HLA-A*02:01
- PROTOCOL NOTES: IEDB peptide-MHC binding, purified MHC/competitive/radioactivity; bounds were set here for any values at or beyond the usual limits of such assays
- SETTINGS: source organism: Hepatitis B virus subtype ayw
QUANTITY MEASURED: pIC50
pIC50 field: float, defined as -log10 of concentration (mol/L).

The sequence identified as NLYVSLLLL registered its pIC50 at 7.11

---

- TEST SYSTEM: HLA-A*31:01
- PROTOCOL NOTES: IEDB peptide-MHC binding, purified MHC/competitive/radioactivity; filed as Kd, often an IC50 or EC50 that approximates it; bounds were set here for any values at or beyond the usual limits of such assays
- SETTINGS: source organism: Dengue virus 3 Martinique/1243/1999
QUANTITY MEASURED: Kd (nM)
Dear colleague, please return just the value in nM, with no unit written.

> print(dat)
   record.sequence  quantity.measured  reported.value
1        MSAAVKDER                 Kd            32.4

Assay HLA-A*31:01, sample AIWYMWLGAR , Kd read: 42.3

---

Items are presented alongside their recorded pKd.
- TEST SYSTEM: HLA-B*57:01
- PROTOCOL NOTES: IEDB peptide-MHC binding, purified MHC/direct/fluorescence; filed as Kd, often an IC50 or EC50 that approximates it; bounds were set here for any values at or beyond the usual limits of such assays
- SETTINGS: source organism: Yellow fever virus
pKd: −log10 of the molar value.

> print(dat)
   record.sequence  test.system  quantity.measured  reported.value
1        EVRLATMLF  HLA-B*57:01                pKd          ≤ 4.70

Next sequence, pKd to be filled in.
The sequence identified as YFHKRDMRL registered its pKd at ≤ 4.70
